I'd appreciate it if you could supply log10 of Activity values for the items below.
tested on: Hepatitis C virus; assay: Antiviral activity against HCV infected in human hepatoma cells by replicon assay; assay type: functional, Hepacivirus hominis
Heads up: the numbers are on a log10 scale; they represent Activity in nM.

Field request: log10 of Activity | item: CCCC(CCC)C(=O)OCCNP(=O)(OC[C@H]1O[C@@H](n2ccc(N)nc2=O)[C@](C)(O)[C@@H]1O)Oc1ccccc1 (stereo in doubt; 10b)
2.38

# lookup: log10 of Activity of CC(C)CC(COC(=O)C(C)(C)C)NP(=O)(OC[C@H]1O[C@@H](n2ccc(N)nc2=O)[C@](C)(O)[C@@H]1O)Oc1ccccc1 (stereo partly specified)
3.26

So what's the measured log10 of Activity for this one? CC(CNP(=O)(OC[C@H]1O[C@@H](n2ccc(N)nc2=O)[C@](C)(O)[C@@H]1O)Oc1ccccc1)OC(=O)C(C)C (stereo partly specified)
2.77

Would you kindly share the measured log10 of Activity for C[C@@]1(O)[C@H](O)[C@@H](COP(=O)(NCCOC(=O)c2ccccc2)Oc2ccccc2)O[C@H]1n1ccc(N)nc1=O (stereo partly specified) ?
3.29

What does the record list as log10 of Activity for CCC(CC)C(=O)OCCNP(=O)(OC[C@H]1O[C@@H](n2ccc(N)nc2=O)[C@](C)(O)[C@@H]1O)Oc1ccccc1 (stereo in doubt; 9) [DIASTEREOMERIC MIX] ?
3.45
